target entity: PI3K δ (Homo sapiens, UniProt O00329)
Sequence (O00329 whole entry, species assumed): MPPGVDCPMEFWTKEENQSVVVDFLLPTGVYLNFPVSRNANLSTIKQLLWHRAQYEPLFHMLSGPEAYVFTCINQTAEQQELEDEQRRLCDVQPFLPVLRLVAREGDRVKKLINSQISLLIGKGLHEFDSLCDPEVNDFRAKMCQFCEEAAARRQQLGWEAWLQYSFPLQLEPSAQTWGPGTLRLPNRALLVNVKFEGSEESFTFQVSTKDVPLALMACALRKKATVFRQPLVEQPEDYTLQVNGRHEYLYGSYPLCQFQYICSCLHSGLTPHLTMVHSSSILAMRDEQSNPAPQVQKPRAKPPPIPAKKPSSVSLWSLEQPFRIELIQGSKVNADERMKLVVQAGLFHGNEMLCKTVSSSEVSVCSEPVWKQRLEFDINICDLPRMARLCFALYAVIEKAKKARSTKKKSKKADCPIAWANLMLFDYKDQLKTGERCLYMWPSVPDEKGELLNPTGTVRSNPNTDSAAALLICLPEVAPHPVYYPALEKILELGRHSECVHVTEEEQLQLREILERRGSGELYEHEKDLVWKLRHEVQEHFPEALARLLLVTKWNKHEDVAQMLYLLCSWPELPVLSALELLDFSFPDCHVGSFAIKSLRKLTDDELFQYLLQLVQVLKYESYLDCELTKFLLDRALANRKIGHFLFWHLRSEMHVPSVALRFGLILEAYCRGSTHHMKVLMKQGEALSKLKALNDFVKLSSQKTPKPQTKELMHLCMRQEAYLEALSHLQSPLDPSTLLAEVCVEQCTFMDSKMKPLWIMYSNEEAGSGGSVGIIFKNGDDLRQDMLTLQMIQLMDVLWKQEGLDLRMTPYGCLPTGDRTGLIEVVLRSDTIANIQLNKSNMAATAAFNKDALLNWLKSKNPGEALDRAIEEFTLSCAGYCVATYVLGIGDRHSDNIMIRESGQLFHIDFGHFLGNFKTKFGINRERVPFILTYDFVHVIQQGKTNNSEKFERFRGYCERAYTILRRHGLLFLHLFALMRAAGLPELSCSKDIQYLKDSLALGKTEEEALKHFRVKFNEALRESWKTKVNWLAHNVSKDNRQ
Sequence (P27986 whole entry partner, species assumed): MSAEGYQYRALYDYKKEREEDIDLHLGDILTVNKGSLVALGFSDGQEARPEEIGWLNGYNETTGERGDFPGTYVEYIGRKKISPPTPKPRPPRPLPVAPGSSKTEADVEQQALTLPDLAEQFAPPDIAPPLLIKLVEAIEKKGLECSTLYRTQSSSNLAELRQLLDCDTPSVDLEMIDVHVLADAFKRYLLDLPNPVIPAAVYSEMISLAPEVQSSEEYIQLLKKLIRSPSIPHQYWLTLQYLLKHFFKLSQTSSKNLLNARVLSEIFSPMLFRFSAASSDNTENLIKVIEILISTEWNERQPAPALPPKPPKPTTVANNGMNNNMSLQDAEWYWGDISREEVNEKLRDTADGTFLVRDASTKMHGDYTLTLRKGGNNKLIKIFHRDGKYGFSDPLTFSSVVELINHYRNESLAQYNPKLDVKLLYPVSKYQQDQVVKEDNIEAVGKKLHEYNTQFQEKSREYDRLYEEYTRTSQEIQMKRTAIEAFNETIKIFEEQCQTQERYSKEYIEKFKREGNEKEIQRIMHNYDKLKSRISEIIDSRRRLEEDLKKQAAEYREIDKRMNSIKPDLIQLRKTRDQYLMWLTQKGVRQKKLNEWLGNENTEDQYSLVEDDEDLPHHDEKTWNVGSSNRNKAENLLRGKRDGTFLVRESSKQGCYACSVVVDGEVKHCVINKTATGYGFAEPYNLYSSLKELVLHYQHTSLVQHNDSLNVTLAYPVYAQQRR
method: PI3K δ kinase assay
Format: biochemical
test conditions: Table 2
pIC50: −log10 of the molar value.
measured metric: pIC50

| compound | measured metric | test result |
| --- | --- | --- |
| Nc1ncnc2c1c(-c1cc3cccc(O)c3[nH]1)nn2C1CCN(C(=O)C2CC2)CC1 | pIC50 | < 6.30 |
| CC(=O)N1CCC(n2nc(-c3cc4ccc(O)cc4[nH]3)c3c(N)ncnc32)CC1 | pIC50 | 7.60 to 8.00 |
| Cc1nccn1CCn1nc(-c2cc3cc(O)ccc3[nH]2)c2c(N)ncnc21 | pIC50 | < 6.30 |
| CC(C)N1CCC(n2nc(-c3cc4cccc(O)c4[nH]3)c3c(N)ncnc32)CC1 | pIC50 | 6.30 to 7.00 |
| CC(C)n1nc(-c2cc3cc(O)c(Cl)cc3[nH]2)c2c(N)ncnc21 | pIC50 | < 6.30 |
| CN1CCN(C2CC(n3nc(-c4cc5cc(O)ccc5[nH]4)c4c(N)ncnc43)C2)CC1 (centres unmarked) | pIC50 | 6.30 to 7.00 |
| CC(C)n1nc(-c2cc3c(Cl)ccc(O)c3[nH]2)c2c(N)ncnc21 | pIC50 | < 6.30 |
| COc1cccc2cc(-c3nn(C4CCOCC4)c4ncnc(N)c34)[nH]c12 | pIC50 | 7.60 to 8.00 |
| CC(C)N1CCC(n2nc(-c3cc4c(Cl)ccc(O)c4[nH]3)c3c(N)ncnc32)CC1 | pIC50 | < 6.30 |
| Nc1ncnc2c1c(-c1cc3cc(O)ccc3[nH]1)nn2C1CC(N2CCOCC2)C1 (centres unmarked) | pIC50 | 6.30 to 7.00 |
| Nc1ncnc2c1c(-c1cc3c(Cl)cccc3[nH]1)nn2C1CCOCC1 | pIC50 | < 6.30 |
| CCOC(=O)Cn1nc(-c2cc3cc(O)ccc3[nH]2)c2c(N)ncnc21 | pIC50 | < 6.30 |
| Nc1ncnc2c1c(-c1cc3cc(O)cc(Cl)c3[nH]1)nn2C1CCOCC1 | pIC50 | 7.60 to 8.00 |
| CC(=O)N1CCC(n2nc(-c3cc4c(Cl)ccc(O)c4[nH]3)c3c(N)ncnc32)CC1 | pIC50 | 6.30 to 7.00 |
| CNC(=O)CCn1nc(-c2cc3cc(O)ccc3[nH]2)c2c(N)ncnc21 | pIC50 | < 6.30 |
| Nc1ncnc2c1c(-c1cc3cccc(Cl)c3[nH]1)nn2C1CCOCC1 | pIC50 | 6.30 to 7.00 |
| Nc1ncnc2c1c(-c1cc3cc(O)ccc3[nH]1)nn2C1CCCCC1 | pIC50 | 7.00 to 7.30 |

====

target entity: PI3K γ (Homo sapiens, UniProt P48736)
Sequence (P48736 whole entry, species assumed): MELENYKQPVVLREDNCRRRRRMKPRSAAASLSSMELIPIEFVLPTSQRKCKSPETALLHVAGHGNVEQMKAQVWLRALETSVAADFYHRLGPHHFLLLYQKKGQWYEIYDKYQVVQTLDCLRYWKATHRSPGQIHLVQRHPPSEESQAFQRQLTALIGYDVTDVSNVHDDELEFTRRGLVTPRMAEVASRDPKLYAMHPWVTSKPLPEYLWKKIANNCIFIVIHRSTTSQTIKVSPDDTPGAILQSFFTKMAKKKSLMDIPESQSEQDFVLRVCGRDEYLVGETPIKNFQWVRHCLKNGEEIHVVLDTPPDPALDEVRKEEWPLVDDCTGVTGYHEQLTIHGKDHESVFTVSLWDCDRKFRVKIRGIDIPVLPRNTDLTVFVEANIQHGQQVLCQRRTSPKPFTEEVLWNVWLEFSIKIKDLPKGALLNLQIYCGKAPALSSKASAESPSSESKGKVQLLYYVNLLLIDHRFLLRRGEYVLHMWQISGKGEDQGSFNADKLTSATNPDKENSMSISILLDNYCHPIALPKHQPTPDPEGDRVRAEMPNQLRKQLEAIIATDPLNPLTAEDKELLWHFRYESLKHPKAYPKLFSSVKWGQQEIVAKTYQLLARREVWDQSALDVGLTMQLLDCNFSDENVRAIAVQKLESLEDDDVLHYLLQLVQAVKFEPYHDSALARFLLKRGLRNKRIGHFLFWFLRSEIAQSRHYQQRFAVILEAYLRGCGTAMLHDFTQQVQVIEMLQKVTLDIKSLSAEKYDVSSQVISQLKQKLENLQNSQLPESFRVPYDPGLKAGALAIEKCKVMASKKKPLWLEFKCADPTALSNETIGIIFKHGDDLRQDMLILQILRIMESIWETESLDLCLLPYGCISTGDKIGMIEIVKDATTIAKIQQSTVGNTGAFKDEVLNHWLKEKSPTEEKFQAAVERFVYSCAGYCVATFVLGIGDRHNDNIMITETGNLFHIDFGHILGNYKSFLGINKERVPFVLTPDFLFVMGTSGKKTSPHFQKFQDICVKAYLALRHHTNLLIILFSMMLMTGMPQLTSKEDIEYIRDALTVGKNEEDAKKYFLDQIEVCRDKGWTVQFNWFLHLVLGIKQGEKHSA
method: PI3K γ kinase assay
Assay type: biochemical
test conditions: Table 1
measured metric: IC50

| molecule | test result |
| --- | --- |
| CC(C)n1nc(-c2ccc3nc(N)oc3c2)c2c(N)ncnc21 [Compound 4] | < 1000 nM |
| Nc1nc2cc(-c3nn(C4CC(O)C4)c4ncnc(N)c34)ccc2o1 (stereo not drawn) [Compound 26] | < 100 nM |
| CC(=O)Nc1nc2cc(-c3nn(C(C)C)c4ncnc(N)c34)ccc2o1 [Compound 2] | < 1000 nM |
| CC(=O)N1CCC(n2nc(-c3ccc4oc(N)nc4c3)c3c(N)ncnc32)CC1 [Compound 7] | < 10000 nM |
| Cc1nc(N)c2c(-c3ccc4oc(N)nc4c3)nn(C(C)C)c2n1 [Compound 21] | > 10000 nM |
| Nc1noc2ccc(-c3nn(CC(=O)N4CCOCC4)c4ncnc(N)c34)cc12 [Compound 17] | > 10000 nM |
| CNc1noc2cc(-c3nn(C(C)C)c4ncnc(N)c34)ccc12 [Compound 13] | < 1000 nM |
| CC(C)(CO)n1nc(-c2ccc3oc(N)nc3c2)c2c(N)ncnc21 [Compound 27] | > 10000 nM |
| Nc1nc2cc(-c3nn(C4CC(=O)C4)c4ncnc(N)c34)ccc2o1 [Compound 25] | < 100 nM |
| CC(C)n1cc(-c2ccc3oc(N)nc3c2)c2c(N)ncnc21 [Compound 8] | < 1000 nM |
| CC(CO)n1nc(-c2ccc3oc(N)nc3c2)c2c(N)ncnc21 (stereo not drawn) [Compound 23] | < 10000 nM |
| Nc1nc2cc(-c3nn(C4CCOCC4)c4ncnc(N)c34)ccc2o1 [Compound 5] | < 100 nM |
